- System Name: UniProt:P21980
- Sequence (P21980 whole entry): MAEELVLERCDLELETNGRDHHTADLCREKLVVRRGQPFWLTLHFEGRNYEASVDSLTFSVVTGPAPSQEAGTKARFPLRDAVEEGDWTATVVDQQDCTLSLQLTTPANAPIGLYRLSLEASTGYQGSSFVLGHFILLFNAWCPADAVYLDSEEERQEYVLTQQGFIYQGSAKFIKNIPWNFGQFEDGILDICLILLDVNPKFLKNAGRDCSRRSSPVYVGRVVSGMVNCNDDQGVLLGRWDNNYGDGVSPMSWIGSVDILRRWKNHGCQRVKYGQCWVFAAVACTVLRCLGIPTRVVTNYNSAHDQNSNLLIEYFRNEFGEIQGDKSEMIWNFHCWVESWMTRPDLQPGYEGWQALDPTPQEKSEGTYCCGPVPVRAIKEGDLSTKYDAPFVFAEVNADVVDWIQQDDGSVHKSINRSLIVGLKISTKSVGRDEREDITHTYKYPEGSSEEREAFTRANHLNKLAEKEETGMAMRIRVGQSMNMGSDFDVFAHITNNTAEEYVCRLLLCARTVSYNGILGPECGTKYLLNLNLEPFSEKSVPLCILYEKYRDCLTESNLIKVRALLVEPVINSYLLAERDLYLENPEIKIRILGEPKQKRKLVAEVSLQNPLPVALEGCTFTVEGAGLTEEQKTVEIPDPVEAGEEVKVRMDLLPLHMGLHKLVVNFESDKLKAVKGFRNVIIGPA
- Test Method Notes: Inhibition of human TGase 2 using R-I-Cad/DMC as substrate preincubated for 5 mins followed by substrate addition measured at 30 secs interval over 900 secs by fluorescence anisotropy assay

Smiles Notation: C=CC(=O)NCCCC[C@H](NC(=O)Cc1ccccc1)C(=O)N1CCN(c2cccc(C(C)(C)C)n2)CC1
Unit Name: µM
IC50: 0.17

Smiles Notation: C=CC(=O)NCCCC[C@H](NC(=O)Cc1ccccc1)C(=O)N1CCN(c2ccc([N+](=O)[O-])nc2)CC1
Unit Name: µM
IC50: 0.09

Smiles Notation: C=CC(=O)NCCCC[C@H](NC(=O)Cc1ccccc1)C(=O)N1CCN(c2cccc([N+](=O)[O-])n2)CC1
Unit Name: µM
IC50: 0.1

Smiles Notation: C=CC(=O)NCCCC[C@H](NC(=O)Cc1ccccc1)C(=O)N1CCN(c2cccc(C)n2)CC1
Unit Name: µM
IC50: 0.31

Smiles Notation: C=CC(=O)NCCCC[C@H](NC(=O)Cc1ccccc1)C(=O)N1CCN(c2cccc(Br)n2)CC1
Unit Name: µM
IC50: 0.22

Smiles Notation: C=CC(=O)NCCCC[C@H](NC(=O)Cc1ccccc1)C(=O)N1CCN(c2ccccn2)CC1
Unit Name: µM
IC50: 0.34

====

- System Name: Protein-glutamine gamma-glutamyltransferase (Homo sapiens)
- Sequence (P21980 whole entry): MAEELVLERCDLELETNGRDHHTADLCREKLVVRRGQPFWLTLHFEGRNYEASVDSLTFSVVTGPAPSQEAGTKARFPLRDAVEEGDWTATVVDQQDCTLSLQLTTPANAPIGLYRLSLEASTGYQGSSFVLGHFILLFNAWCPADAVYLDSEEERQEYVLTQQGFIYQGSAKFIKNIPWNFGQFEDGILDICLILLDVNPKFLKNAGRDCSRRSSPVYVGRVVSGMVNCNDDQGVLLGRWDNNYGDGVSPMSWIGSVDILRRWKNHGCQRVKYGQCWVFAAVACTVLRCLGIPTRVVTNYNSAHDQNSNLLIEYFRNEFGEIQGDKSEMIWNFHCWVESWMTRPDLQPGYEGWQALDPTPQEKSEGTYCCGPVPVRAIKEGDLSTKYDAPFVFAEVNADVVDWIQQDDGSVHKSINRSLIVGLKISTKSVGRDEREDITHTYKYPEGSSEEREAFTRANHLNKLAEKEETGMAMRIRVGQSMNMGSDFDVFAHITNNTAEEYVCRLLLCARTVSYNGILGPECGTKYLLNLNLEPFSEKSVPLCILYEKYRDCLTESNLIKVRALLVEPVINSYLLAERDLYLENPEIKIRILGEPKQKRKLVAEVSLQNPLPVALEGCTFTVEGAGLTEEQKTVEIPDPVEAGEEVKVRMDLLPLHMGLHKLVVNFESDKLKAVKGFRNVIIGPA
- Test Method Notes: Irreversible inhibition of human TGase 2 using Z-Glu(HMC)-Gly-OH as substrate measured at 20 secs interval over 900 secs by fluorimetric assay
Just a reminder that ties go to Criterion not met: only Ki strictly below 6 µM counts as Criterion met.

Smiles Notation: C=CC(=O)NCCCC[C@H](NC(=O)Cc1ccccc1)C(=O)N1CCN(c2ccc(C(N)=O)nc2)CC1
Class Assignment: Criterion met
--
Smiles Notation: C=CC(=O)NCCCC[C@H](NC(=O)Cc1ccccc1)C(=O)N1CCN(c2ccc(C(F)(F)F)nc2)CC1
Class Assignment: Criterion not met
--
Smiles Notation: C=CC(=O)NCCCC[C@H](NC(=O)Cc1ccccc1)C(=O)N1CCN(c2cccc(C)c2)CC1
Class Assignment: Criterion not met
--
Smiles Notation: C=CC(=O)NCCCC[C@H](NC(=O)Cc1ccccc1)C(=O)N1CCN(c2ccc(F)nc2)CC1
Class Assignment: Criterion not met
--
Smiles Notation: C=CC(=O)NCCCC[C@H](NC(=O)C(F)(F)F)C(=O)N1CCN(c2cccc(-c3ccccc3)n2)CC1
Class Assignment: Criterion not met
--
Smiles Notation: C=CC(=O)NCCCC[C@H](NC(=O)Cc1ccccc1)C(=O)N1CCN(C(=O)c2ccc(F)cc2)CC1
Class Assignment: Criterion not met
--
Smiles Notation: C=CC(=O)NCCCC[C@H](NC(=O)Cc1ccccc1)C(=O)N1CCN(C(=O)c2ccc([N+](=O)[O-])cc2)CC1
Class Assignment: Criterion not met
--
Smiles Notation: C=CC(=O)NCCCC[C@H](NC(=O)Nc1ccccc1)C(=O)N1CCN(c2ccc([N+](=O)[O-])nc2)CC1
Class Assignment: Criterion not met
--
Smiles Notation: C=CC(=O)NCCCC[C@H](NC(=O)Cc1ccc(F)cc1)C(=O)N1CCN(c2ccc([N+](=O)[O-])nc2)CC1
Class Assignment: Criterion met
--
Smiles Notation: C=CC(=O)NCCCC[C@H](NC(=O)Cc1ccccc1)C(=O)N1CCN(c2ccc(C(=O)OC)nc2)CC1
Class Assignment: Criterion not met
--
Smiles Notation: C=CC(=O)NCCCC[C@H](NC(=O)Cc1cccs1)C(=O)N1CCN(c2cccc(C)n2)CC1
Class Assignment: Criterion met
--
Smiles Notation: C=CC(=O)NCCCC[C@H](NC(=O)Cc1ccccc1F)C(=O)N1CCN(c2cccc([N+](=O)[O-])n2)CC1
Class Assignment: Criterion met
--
Smiles Notation: C=CC(=O)NCCCC[C@H](NC(=O)Cc1ccccc1)C(=O)N1CCN(c2ccc([N+](=O)[O-])cc2)CC1
Class Assignment: Criterion met
--
Smiles Notation: C=CC(=O)NCCCC[C@H](NC(=O)Cc1ccccc1)C(=O)N1CCN(c2ccc([N+](=O)[O-])nc2)CC1
Class Assignment: Criterion met
--
Smiles Notation: C=CC(=O)NCCCC[C@H](NC(=O)Cc1ccccc1)C(=O)N1CCN(c2ccncc2)CC1
Class Assignment: Criterion met
--
Smiles Notation: C=CC(=O)NCCCC[C@H](NC(=O)Cc1ccccc1F)C(=O)N1CCN(c2cccc(C)n2)CC1
Class Assignment: Criterion met
--
Smiles Notation: C=CC(=O)NCCCC[C@H](NC(=O)Cc1ccccc1)C(=O)N1CCN(c2cccnc2)CC1
Class Assignment: Criterion met
--
Smiles Notation: C=CC(=O)NCCCC[C@H](NC(=O)Cc1ccccc1)C(=O)N1CCN(Cc2ccc(F)cc2)CC1
Class Assignment: Criterion not met
--
Smiles Notation: C=CC(=O)NCCCC[C@H](NC(=O)c1ccc(F)cc1)C(=O)N1CCN(c2ccc([N+](=O)[O-])nc2)CC1
Class Assignment: Criterion not met
